Measured protein stability index accompanies every entry in the list below.
B1: SNX8 (parent)
chain: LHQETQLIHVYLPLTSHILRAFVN

# Variants of: B1
# procedure.text: protein stability index of a GFP-peptide fusion (GPS, HEK-293T) (PSI 1-6); higher = more stable;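 note: lentivirally expressed fusions sorted by FACS into six bins by GFP to DsRed ratio, PSI derived from sequencing read proportions per bin multiplied by bin number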
# settings: c terminus: a fixed tail appended
observed.property: protein stability index

1) LHQETLLIHVYLPLTSHILRAFVN: 3.52
2) LHQETQLIHVYLPLTQHILRAFVN: 2.5
3) LHQMTQLIHVYLPLTSHILRAFVN: 2.04
4) LFQETQLIHVYLPLTSHILRAFVN: 2.04
5) LHQETQLIHVYLPLTSHILRAFVS: 2.59
